Recorded Enzyme Activity Endpoint Assay (purified): scIgG, one value per entry.
biological target: pooled human IgG (human IgG1, 2, 3 and 4)
reported.metric: Enzyme Activity Endpoint Assay (purified): scIgG (ng/µL)

INSERT INTO measurements (protein, uom, observed_measurement) VALUES
  ('PRT-516 (protein) MITSVWTKGVTPPTDFIKGEDVFHAPYKAGQGWYDITKAFDGGDDLLCGAATAGNMLHWWFDQNKEEIEAYLKKHPEKQKIMFGDQELLDVRKVINTKDSQTNSALFNYFKDKAFPNLSARRLGVMPDLVLDMFINGYYLNVYKTQTTDVNRTYQTKDRRGGIFDAVFTRGDQSKLLTERHDLKNKTLNEISQLIKQELTEGKALGLSHTYANVRINHVINLWGADFDAEGNLEAIYVTDSDSNASIGMKKYFVGVNSAGKVAISAKEIKEDNIGAQVLGLFTLSTGQDIWNQTNLEHHHHHH', 'ng/µL', 0),
  ('PRT-389 (protein) MVTSVWTKGVTPPTNFTYGEDVLHAPYVANQGWYDITKTFNGKDDLLCGAATAGNMLHWWFDQNKEQIENYLKKHPEKQKINFKGEQMFDVKEAIDTKDSQLDSKLFEYFKEKAFPYLSTKHLGVFPDHVIDMFINGYRLSLTNHGPTPVKRGSKDPRGGIFDAVFTRGDQSKLLTNRHDFKEKTLKEISDLIKQELTEGKALGISHTYANVRINHVINLWGADFDAEGNLEAIYVTDSDSNASIGMKKYFVGVNSNGKVAISAKEIEEDNIGAQVLGLFTLSTGQDIWNQTN', 'ng/µL', 219);
